- Tested on: E21 (patient-derived glioblastoma stem cells of mesenchymal subtype);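 note: cell Painting imaging in 384-well plates, CellProfiler features reduced to at least 20 principal components, Euclidean distance versus same-plate DMSO vehicle wells (0.1% v/v), median over six images per well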
- assay method text: phenotypic distance (Euclidean, principal components) from DMSO controls (arbitrary units); higher = stronger morphological change
- condition info: 111.1 nM; exposure time: 72 h
Where a name gives a salt, the structure may show the parent alone.

# compound, phenotypic distance
data = [
    ("O=C(Oc1cccc2cccnc12)c1ccccc1 [Benzoxiquine]", 0.833),
    ("COc1cc(/C=C/C(=O)N2CCC=CC2=O)cc(OC)c1OC [Piperlongumine]", 0.313),
    ("COc1cc([C@@H]2c3cc4c(cc3[C@H](O)[C@H]3COC(=O)[C@H]23)OCO4)cc(OC)c1OC [Podophyllotoxin]", 8.65),
    ("C[C@@H](Oc1cc(-c2cnn(C3CCNCC3)c2)cnc1N)c1c(Cl)ccc(F)c1Cl [Crizotinib]", 0.783),
    ("C[C@@]12C(=O)OC(=O)[C@]1(C)[C@H]1CC[C@@H]2O1 [Cantharidin]", 2.07),
    ("CC(C)NCC(O)c1cc(O)cc(O)c1 (stereo not drawn) [Metaproterenol sulfate, orciprenaline sulfate]", 2.96),
    ("C[C@]12CC[C@H](O)C[C@H]1CC[C@@H]1[C@@H]2C[C@@H](O)[C@]2(C)[C@@H](C3=CC(=O)OC3)CC[C@]12O [Digoxigenin]", 1.64),
    ("CNCCCC12CCC(c3ccccc31)c1ccccc12 [Maprotiline hydrochloride]", 1.03),
]

----------
- Test system: E57 (patient-derived glioblastoma stem cells of mesenchymal subtype)
- assay method text: surviving fraction (nuclei count normalised to DMSO); higher = more cells surviving (less toxic)
- condition info: 37 nM; exposure time: 72 h
Quick reference for surviving fraction among some compounds

# compound, surviving fraction
data = [
    ("Cc1[nH]nc(C(F)(F)F)c1Cc1sc2c(c1C(=O)N1C[C@](C)(O)CO1)c(=O)n(C)c(=O)n2C(C)C [AZD3965]", 0.94),
    ("CN(C)C(=O)Oc1ccc[n+](C)c1 [Pyridostigmine iodide]", 0.923),
    ("CCC(C)n1ncn(-c2ccc(N3CCN(c4ccc(OCC5COC(Cn6cncn6)(c6ccc(Cl)cc6Cl)O5)cc4)CC3)cc2)c1=O (centres undefined) [Itraconazole]", 1.02),
    ("Nc1ccn([C@@H]2O[C@H](CO)[C@@H](O)[C@@H]2O)c(=O)n1 [Cytarabine]", 0.443),
]

----------
- Tested on: E31 (patient-derived glioblastoma stem cells of proneural subtype)
- assay method text: surviving fraction (nuclei count normalised to DMSO); higher = more cells surviving (less toxic)
- condition info: 333.3 nM; exposure time: 72 h
Structures can show the parent of a compound that is named as a salt.
attribute measured: surviving fraction

# compound, attribute measured, meas value
records = [
    ("C=CC(=O)Nc1cc(Nc2nccc(-c3cn(C)c4ccccc34)n2)c(OC)cc1N(C)CCN(C)C [Osimertinib mesylate]", "surviving fraction", 0.743),
    ("CN(C)C(=O)Oc1ccc[n+](C)c1 [Pyridostigmine iodide]", "surviving fraction", 1.07),
    ("CN1C(=O)CC(c2ccccc2)C1=O (stereo not drawn) [Phensuximide]", "surviving fraction", 1.14),
    ("CN(c1nccc(=O)[nH]1)C1CCN(c2nc3ccccc3n2Cc2ccc(F)cc2)CC1 [Mizolastine]", "surviving fraction", 0.944),
    ("COc1cc2ncnc(Nc3cccc(Br)c3)c2cc1OC", "surviving fraction", 0.877),
    ("CC(C)NCC(O)c1ccc(O)c(O)c1 (stereo not drawn) [Isoproterenol hydrochloride]", "surviving fraction", 1.02),
    ("C[C@]12CC[C@H](O)C[C@H]1CC[C@@H]1[C@@H]2C[C@@H](O)[C@]2(C)[C@@H](C3=CC(=O)OC3)CC[C@]12O [Digoxigenin]", "surviving fraction", 0.946),
    ("CC1=C(/C=C/C(C)=C/C=C/C(C)=C/C(=O)Nc2ccc(O)cc2)C(C)(C)CCC1 [Retinoic acid p-hydroxyanilide]", "surviving fraction", 1.05),
]
